Test system: THP-1 macrophages
Experiment: Cytotoxicity against THP-1 macrophages (CellTiter-Blue)
Assay type: cell-based, human
No end group written: not given here.
measuredProperty: THP-1 macrophage CC50

INSERT INTO results (primarysequence, studytarget, reportedresult) VALUES
  ('AGRQALTLELKEYLRKRGKKWFIAW [Syn-xiamencin-35]', 'THP-1 macrophages', '< 20 µM'),
  ('AGAQRLTKELLEYLRKFWKIARKAW [Syn-xiamencin-23]', 'THP-1 macrophages', '< 20 µM'),
  ('AGKKTIRQYLKNEIKKKGRKAWIAW [Syn-safencin 66]', 'THP-1 macrophages', '> 20 µM'),
  ('WGTEKIRQFLKKKIQEKGKRATIAW [Syn-larvacin-10]', 'THP-1 macrophages', 'below 20 μM'),
  ('AGRQALTKYLLEELRKRGKKWFIAW [Syn-xiamencin-36]', 'THP-1 macrophages', '< 20 µM'),
  ('AGTEKIFQRLKKTIQEWKKIAKRAW [Syn-larvacin-47]', 'THP-1 macrophages', '< 20 µM'),
  ('AGRQWLTLYLKEELRKFGKKARIAW [Syn-xiamencin-53]', 'THP-1 macrophages', '< 20 µM'),
  ('AGKKTIRQYLKNKIKKKGRKAWIAW [Syn-safencin-68]', 'THP-1 macrophages', '< 20 µM'),
  ('AGKETIRQFLKKKIQEGKKRATIAW [Syn-larvacin-4]', 'THP-1 macrophages', 'below 20 μM'),
  ('AGKETIFQRLKKKIQEKGKRATIAW [Syn-larvacin-3]', 'THP-1 macrophages', 'below 20 μM');
